# STUDY SYSTEM: T1, biotinylated cTfR1 (Acro Bio p/n TFR-C8249) (cynomolgus monkey, UniProt H9EXL1 89-760 (rhesus entry), biotinylated; site not stated)
# T1 construct: Bought reagent of the BLI assay
# T1 sequence (chain, as listed by the source): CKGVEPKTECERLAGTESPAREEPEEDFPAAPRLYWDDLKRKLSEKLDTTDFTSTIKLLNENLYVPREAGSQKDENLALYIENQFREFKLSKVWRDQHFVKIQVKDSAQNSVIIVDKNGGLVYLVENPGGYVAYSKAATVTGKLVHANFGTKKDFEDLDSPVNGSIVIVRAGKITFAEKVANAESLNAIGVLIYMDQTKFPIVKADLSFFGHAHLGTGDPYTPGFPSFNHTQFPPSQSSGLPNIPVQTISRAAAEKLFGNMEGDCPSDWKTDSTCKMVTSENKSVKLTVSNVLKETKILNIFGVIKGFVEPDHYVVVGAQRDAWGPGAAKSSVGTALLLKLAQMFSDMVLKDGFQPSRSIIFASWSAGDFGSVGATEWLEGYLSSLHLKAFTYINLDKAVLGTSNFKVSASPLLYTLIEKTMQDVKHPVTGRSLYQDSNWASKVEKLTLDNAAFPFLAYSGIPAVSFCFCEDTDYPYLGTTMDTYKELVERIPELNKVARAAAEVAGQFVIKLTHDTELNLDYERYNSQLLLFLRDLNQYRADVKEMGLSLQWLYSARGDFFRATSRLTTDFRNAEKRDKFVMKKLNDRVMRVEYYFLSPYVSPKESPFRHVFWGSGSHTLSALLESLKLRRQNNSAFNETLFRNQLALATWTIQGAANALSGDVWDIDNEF
# MEASUREMENT DESCRIPTION: BLI, Octet RH16, biotinylated TfR1 on streptavidin sensor; Fab-siRNA conjugate
Listed below: koff values for each entry.
API: value field is a number in s⁻¹; no unit string.

Fab0063-siRNA conjugate (Fab, V domains shown, siRNA-linker on a reduced cysteine; chain and residue not stated, also called Fab0063 (BLI conjugate columns)) VH: EVQLVESGGGLVQPGGSLRLSCATSGYTFTSYWMHWVRQAPGKGLEWVAEINPTNGRVNYIEKFKSRITLSVDKSKSTVYLQMNSLRAEDTAVYYCARGTRAYHYWGQGTLVTVSS VL: DIQLTQSPSSLSASVGDRVTITCRASDGLYSNLAWYQQKPGKAPKLLIYDATRLASGVPSRFSGSGSGTDYTLTISSLQPEDFATYYCQHFWGTPLTFGQGTKVEIKR ... 0.0022

Q: koff lookup needed for Fab0060-siRNA conjugate (Fab, V domains shown, siRNA-linker on a reduced cysteine; chain and residue not stated, also called Fab0060 (BLI conjugate columns)) VH: EVQLVESGGGLVQPGGSLRLSCATSGYTFTSYWVHWVRQAPGKGLEWVAEINPTNGRTNYIEKFKSRITLSVDKSKSTVYLQMNSLRAEDTAVYYCARGTRAYHYWGQGTLVTVSS VL: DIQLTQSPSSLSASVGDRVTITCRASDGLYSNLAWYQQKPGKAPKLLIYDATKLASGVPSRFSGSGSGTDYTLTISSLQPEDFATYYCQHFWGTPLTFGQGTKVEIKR , thanks.
Ans: 0.00252
